- Test system: U2OS
- test.summary: Multiplex assay against U2OS
- Format: toxicity, cell-based
- run.parameters: human, 12 h, 10 µM, compound concentration 10 uM, replicate 1
Non-standard residues stand in square brackets, D forms with d. Residues, ends and D or L forms follow the SMILES beside them.
observable: Population Fragmented Nuclei (%)
# value in %; strip the unit string

Worked set:
molecule: CC(C)(O)C(=O)N1CCN(c2ccc(C(F)(F)F)c(C3=C(c4c[nH]c5ccccc45)C(=O)NC3=O)c2)CC1
Population Fragmented Nuclei (%): 37

molecule: Cc1cc(=O)n(C)c2cc(N3C(=O)CC[C@H](NS(=O)(=O)CC(C)C)[C@H]3c3ccc(Cl)cc3)ccc12
Population Fragmented Nuclei (%): 21

molecule: COc1cc(C(=O)N2CC[C@@H](O)[C@@H](N)C2)cc2nc(-c3cc4ccccc4n3CC3CC3)n(C)c12.Cl
Population Fragmented Nuclei (%): 23

molecule: COc1ccc2c(c1OCc1ccccc1)C[C@@H](C(=O)O)N(C(=O)C(c1ccccc1)c1ccccc1)C2 [OLODANRIGAN]
Population Fragmented Nuclei (%): 30

molecule: COC(c1ccccc1)(c1ccccc1)[C@H](Oc1nc(C)cc(C)n1)C(=O)O [AMBRISENTAN]
Population Fragmented Nuclei (%): 28

Form field: reported Population Fragmented Nuclei (%) of CC(C)C[C@@H]1NC(=O)[C@@H](C(C)C)NC(=O)[C@@H]2CCCN2C(=O)[C@@H](CC(=O)O)NC(=O)[C@@H](Cc2c[nH]c3ccccc23)NC1=O [BQ-123] (cyclo(L[dW][dD]P[dV])) 29

Query Cc1cc(NC(=O)NCCN2CCC(O)(Cc3ccccc3)CC2)c2ccccc2n1 [PALOSURAN] next 30

Query COc1c(Nc2ccc(S(C)(=O)=O)nc2C)ncnc1OC1CCN(C(=O)OC(C)C)CC1 [ADP-597] next 27
